Attribute: inhibition at 10 µM
system: SF-268 (CNS cancer); experiment: NCI-60 SRB cytotoxicity screen; assay type: cell-based; conditions: Homo sapiens; SF-268, single dose 10 μM; read-out: growth inhibition (GI%)

Below: 5 compounds and their reported inhibition at 10 µM.
> print(dat)
                                   compound  endpoint.result
1  CCc1cccc2cc(-c3cc(-c4ccc(Br)cc4)[nH]c(=O)c3C#N)c(Cl)nc12 [Compound 4e]            < 10%
2  CCc1cccc2cc(C=CC(=O)c3ccc(Br)cc3)c(Cl)nc12 [Compound 3e]            < 10%
3  CCc1cccc2cc(-c3cc(-c4ccc(Br)cc4)[nH]c(=S)c3C#N)c(Cl)nc12 [Compound 5e]            < 10%
4  CCc1cccc2cc(-c3cc(-c4ccc(F)cc4)[nH]c(=O)c3C#N)c(Cl)nc12 [Compound 4d]            < 10%
5  CCc1cccc2cc(C=CC(=O)c3ccc(OC)c(OC)c3)c(Cl)nc12 [Compound 3b]            < 10%

Could you now look at the following compound, please?
Task item: Determine from records and report inhibition at 10 µM for CCc1cccc2cc(C=CC(=O)c3ccc(F)cc3)c(Cl)nc12 [Compound 3d]
Reply: < 10%

====

test system: CCRF-CEM (leukemia); assay: NCI-60 SRB cytotoxicity screen; type: cell-based; conditions: Homo sapiens, single dose 10 μM, read-out: growth inhibition (GI%)
Measured inhibition at 10 µM by item

Consider the worked cases shown below.
> print(dat)
                                   compound             property  endpoint.result
1  CCc1cccc2cc(C3C=C(c4ccc(F)cc4)NC(=S)N3)c(Cl)nc12 (stereo not drawn) [Compound 6d]  inhibition at 10 µM            < 10%
2  CCc1cccc2cc(-c3cc(-c4ccc(F)cc4)[nH]c(=O)c3C#N)c(Cl)nc12 [Compound 4d]  inhibition at 10 µM            < 10%

Turning now to a further compound:
Task item: Tell me its inhibition at 10 µM given CCc1cccc2cc(-c3cc(-c4ccc(Br)cc4)[nH]c(=O)c3C#N)c(Cl)nc12 [Compound 4e] as the entry.
Reply: < 10%

====

system: HL-60(TB) (leukemia); assay: NCI-60 SRB cytotoxicity screen; assay type: cell-based; conditions: Homo sapiens, single dose 10 μM, read-out: growth inhibition (GI%)
PROPERTY: inhibition at 10 µM

Solved entries:
> print(dat)
                           structure.string  endpoint.result
1  CCc1cccc2cc(C=CC(=O)c3ccc(F)cc3)c(Cl)nc12            < 10%
2  CCc1cccc2cc(-c3cc(-c4ccc(F)cc4)[nH]c(=O)c3C#N)c(Cl)nc12            < 10%

Note: attention shifts to another entry.
Task item: Name the value of inhibition at 10 µM reported for CCc1cccc2cc(-c3cc(-c4ccc(F)cc4)[nH]c(=S)c3C#N)c(Cl)nc12 when tested on HL-60(TB) (leukemia).
Reply: < 10%

// provenance: paper PMC11240139
